# subject of test: recombinant human NSD2 (Homo sapiens (Human))
# Sequence (O96028 2-1365 limits assumed): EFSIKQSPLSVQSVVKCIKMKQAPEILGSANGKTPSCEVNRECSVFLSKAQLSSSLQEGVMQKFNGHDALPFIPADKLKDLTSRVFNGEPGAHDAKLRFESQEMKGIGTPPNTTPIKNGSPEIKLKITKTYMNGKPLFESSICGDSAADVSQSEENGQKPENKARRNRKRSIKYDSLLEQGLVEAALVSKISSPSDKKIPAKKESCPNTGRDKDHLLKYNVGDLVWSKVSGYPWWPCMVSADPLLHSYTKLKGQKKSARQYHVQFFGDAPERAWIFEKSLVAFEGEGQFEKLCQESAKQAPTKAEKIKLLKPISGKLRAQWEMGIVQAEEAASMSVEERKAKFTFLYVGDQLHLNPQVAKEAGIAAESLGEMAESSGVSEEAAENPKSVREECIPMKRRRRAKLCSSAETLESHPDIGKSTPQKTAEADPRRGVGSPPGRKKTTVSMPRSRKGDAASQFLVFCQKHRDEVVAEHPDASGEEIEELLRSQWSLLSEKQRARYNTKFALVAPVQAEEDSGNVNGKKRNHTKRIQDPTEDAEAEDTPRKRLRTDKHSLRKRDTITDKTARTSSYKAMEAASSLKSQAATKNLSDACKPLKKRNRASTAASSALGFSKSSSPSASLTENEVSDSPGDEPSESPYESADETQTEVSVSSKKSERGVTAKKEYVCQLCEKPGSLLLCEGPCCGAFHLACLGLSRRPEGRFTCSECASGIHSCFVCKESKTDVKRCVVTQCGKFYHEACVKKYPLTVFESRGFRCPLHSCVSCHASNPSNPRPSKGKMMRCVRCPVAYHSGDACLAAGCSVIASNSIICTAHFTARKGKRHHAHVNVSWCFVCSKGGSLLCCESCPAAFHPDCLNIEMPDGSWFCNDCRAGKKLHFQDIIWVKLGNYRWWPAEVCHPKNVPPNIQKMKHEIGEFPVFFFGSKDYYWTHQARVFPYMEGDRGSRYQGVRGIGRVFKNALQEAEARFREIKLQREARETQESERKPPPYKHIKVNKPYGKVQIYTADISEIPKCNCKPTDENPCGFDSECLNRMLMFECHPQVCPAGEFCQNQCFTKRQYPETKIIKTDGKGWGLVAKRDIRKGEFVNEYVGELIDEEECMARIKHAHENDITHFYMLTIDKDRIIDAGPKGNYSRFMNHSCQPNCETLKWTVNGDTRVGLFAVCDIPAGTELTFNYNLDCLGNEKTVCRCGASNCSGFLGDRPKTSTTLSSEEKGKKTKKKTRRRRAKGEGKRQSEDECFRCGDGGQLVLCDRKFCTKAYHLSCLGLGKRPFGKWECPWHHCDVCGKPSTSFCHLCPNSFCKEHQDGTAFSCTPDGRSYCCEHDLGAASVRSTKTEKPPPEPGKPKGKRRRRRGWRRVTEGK
# test method notes: NSD2 inhibitory activity, modified RBC HotSpot HMT Assay (radiometric, 3H-SAM, oligonucleosome substrate)
# experimental parameters: recombinant human NSD2 2 nM, oligonucleosomes from Chicken 0.05 mg/ml, 3H-SAM 1 μM, 1 hour at 30° C.
assay readout: IC50

smiles representation: COc1cc(F)c(-c2nc(Cn3cnc4c(N)ncnc43)c(N3CCC[C@@](N)([C@H](O)C(F)F)C3)s2)cc1F
IC50: 10 to 100 nM
--
smiles representation: COc1cc(F)c(-c2ncc(N3CCC[C@](N)([C@H](O)C(F)F)C3)c(Cn3cnc4c(N)ncnc43)n2)cc1F
IC50: 100 to 1000 nM

Now for a further compound.
IC50 for `COc1cc(F)c(-c2cc(Cn3cnc4c(N)ncnc43)c(N3CCC[C@](N)([C@H](O)C(F)F)C3)nn2)cc1F` is 100 to 1000 nM
